Entry source: ChEMBL document CHEMBL1287718

# Assay Method Text: Selectivity index, ratio of CC50 for human Akata cells to EC50 for Epstein-Barr virus infected in human Akata cells
# Format: toxicity, cell-based
# Condition Context: read-out: Ratio CC50/EC50
What selectivity ratio was measured for each of the following?

Sample answers from the record:
>>> result("Cc1ccc(Nc2cn(Cc3ccc(Cl)cc3Cl)c(=O)[nH]c2=O)cc1")
2.1
>>> result("O=c1[nH]c(=O)n(Cc2cccc(Cl)c2)cc1Nc1ccccc1")
"> 5"
>>> result("O=c1[nH]c(=O)n([C@H]2CO[C@@H](CO)O2)cc1I")
"> 3030"
>>> result("Cc1cc(C)cc(Cn2cc(Nc3ccccc3)c(=O)[nH]c2=O)c1")
"< 4.8"
>>> result("O=c1[nH]c(=O)n(Cc2ccc(Cl)cc2Cl)cc1NCCc1ccccc1")
"> 1.5"

Batch of 4 molecules: report selectivity ratio for each.
1. Cc1ccccc1Cn1cc(Nc2ccccc2)c(=O)[nH]c1=O
2. O=c1[nH]c(=O)n(Cc2cccc(Oc3ccccc3)c2)cc1Nc1ccccc1
3. O=c1[nH]c(=O)n(Cc2ccc(Cl)cc2Cl)cc1NCc1ccccc1
4. Cc1cccc(Cn2cc(Nc3ccccc3)c(=O)[nH]c2=O)c1

["> 8.3", "> 43", 2.4, "> 1"]

====

What selectivity ratio was measured for each of the following?
# Assay Method Text: Selectivity index, ratio of CC50 for human CEM-SS cells to EC50 for Human immunodeficiency virus 1 infected in human CEM-SS cells
# Type: toxicity, cell-based
# Condition Context: read-out: Ratio CC50/EC50

Sample answers from the record:
>>> result("O=c1[nH]c(=O)n(Cc2ccc(Cl)cc2Cl)cc1NCCc1ccccc1")
"> 2.34"
>>> result("Cc1cc(C)cc(Cn2cc(NCc3ccccc3)c(=O)[nH]c2=O)c1")
17.8
>>> result("O=c1[nH]c(=O)n(Cc2ccc(Cl)cc2Cl)cc1NCc1ccccc1")
"> 1.8"
>>> result("Cc1cccc(Cn2cc(Nc3ccccc3)c(=O)[nH]c2=O)c1")
"> 4.5"
>>> result("Cc1cn([C@H]2C[C@H](N=[N+]=[N-])[C@@H](CO)O2)c(=O)[nH]c1=O")
"> 125"

Quick one: selectivity ratio of `Cc1cc(C)cc(Cn2cc(Nc3ccccc3)c(=O)[nH]c2=O)c1` ? > 16.8

====

# Assay Method Text: Cytotoxicity against human Akata cells assessed as cell viability by XTT assay
# Assay type: cell-based
What CC50 was measured for each of the following?

Sample answers from the record:
>>> result("Cc1ccc(Nc2cn(Cc3ccc(Cl)cc3Cl)c(=O)[nH]c2=O)cc1")
"92.3 µM"
>>> result("O=c1[nH]c(=O)n([C@H]2CO[C@@H](CO)O2)cc1I")
"> 100 µM"
>>> result("Cc1cccc(Cn2cc(Nc3ccccc3)c(=O)[nH]c2=O)c1")
"> 100 µM"
>>> result("O=c1[nH]c(=O)n(Cc2ccc(Cl)cc2Cl)cc1NCCc1ccccc1")
"> 100 µM"
>>> result("O=c1[nH]c(=O)n(Cc2cccc(Oc3ccccc3)c2)cc1Nc1ccccc1")
"> 100 µM"

Quick one: CC50 of `O=c1[nH]c(=O)n(Cc2ccc(Cl)cc2Cl)cc1NCc1ccccc1` ? 96.3 µM
